All figures here come from patent US20230037815A1.

Give koff for every item shown.
Target: T1, human serum albumin (human, UniProt P02768 25-609)
T1 construct: also called HSA
Assay: Octet HTX (ForteBio), HCAb on AHC sensor, 1:1 fit

Enquiry: Recorded koff of CNG-HSA-112 (VHH) VHH: KVQLLESGGGLVQPGGSLRLSCAASGFTFPSFGMSWVRQAPGKGLEWVSSISGSGSDTLYADSVKGRFTISRDNAKTTLYLQMNSLRPEDTAVYYCTIGGSVSKSSRGTLVTVSS , please.
Return: 0.00136 s⁻¹

Enquiry: // repeat for CNG-HSA-119 (VHH) VHH: KVQLVESGGGLVQPGNSLRLSCAASGFTFSSFGMSWVRQAPGKGLEWVSSISGSGSDALYADSAKGRFTISRDNAKTTLYLQMNSLRAEDTAVYYCTIGGSLSPSSQGTLVTVSS and report
Return: 0.00109 s⁻¹

Enquiry: // repeat for CNG-HSA-115 (VHH) VHH: KVQLVESGGGLVQPGNSLRLSCAASGFTFSSFGMGWVRQAPGKGLEWVSSISGSGSDTLYAPSVKGRFTISRDNSKNTLYLQMNSLRPEDTAVYYCTFAGSLSRSSQGTLVTVSS and report
Return: 0.000441 s⁻¹

Alright, here's another binder for you.
Enquiry: Recorded koff of CNG-HSA-109 (VHH) VHH: KVQLVESGGGLVQPGNSLRLSCAASGFTFGSFGMSWVRQAPGKGPEWVSSISGSGSDTLYADSVKGRFTISRDNSKNTLYLQMNSLRPEDTAVYYCTIGGSLSRSSQGTLVTVSS , please.
Return: 0.000566 s⁻¹
